- target: ENaC (Epithelial Sodium Channel) (Mus musculus, UniProt Q61180+Q9WU38+Q9WU39)
- Construct: Mouse kidney M−1 cells were cultivated in DMEM; endogenous in cells; host or cells: Mouse kidney M-1 cells, cultivated with dexamethasone on transwell filters
- test summary: Ussing Chamber assay (short circuit current, amiloride sensitive I_SC)
- Assay type: cell-based
- condition description: Ussing chamber, mouse kidney M-1 cells, short circuit current, compound added to the apical solution; read-out: IC50
experimental readout: IC50 (nM)

compound	result unit	IC50
Nc1nc(N)c(C(=O)NC2CCC[N+](CCc3c[nH]c4ccccc34)(CCc3c[nH]c4ccccc34)C2)nc1Cl (stereo not shown)	nM	140
CS(=O)(=O)CCNC(=O)COc1ccc(CCC[N+]2(CCCc3ccc(OCC(=O)NCCS(C)(=O)=O)cc3)CCC[C@H](NC(=O)c3nc(Cl)c(N)nc3N)C2)cc1	nM	28

A = Nc1nc(N)c(C(=O)N[C@H]2CCC[N+](CCCc3ccc(OCC(=O)NCCN4CCCC4=O)cc3)(CCCc3ccc(OCC(=O)NCCN4CCCC4=O)cc3)C2)nc1Cl
B = Nc1nc(N)c(C(=O)N[C@H]2CCC[N+](CCCc3ccc(OCC(=O)NCCc4cccnc4)cc3)(CCCc3ccc(OCC(=O)NCCc4cccnc4)cc3)C2)nc1Cl
Query string: Could you please tell me which of these two has the higher IC50: A or B ? Output the label that corresponds to your choice.
Result string: A
(A: 16 nM, B: 5 nM)

----------
- target: ENaC (Epithelial Sodium Channel) (Mus musculus, UniProt Q61180+Q9WU38+Q9WU39)
- Construct: Mouse kidney M−1 cells were cultivated in DMEM; endogenous in cells; host or cells: Mouse kidney M-1 cells, cultivated with dexamethasone on transwell filters
- test summary: Ussing Chamber assay (short circuit current, amiloride sensitive I_SC)
- Type: cell-based
- condition description: Ussing chamber, mouse kidney M-1 cells, short circuit current, compound added to the apical solution; read-out: IC50
experimental readout: IC50 (nM)

compound	IC50 / nM
COc1ccc(CCC[N+]2(C)CC(NC(=O)c3nc(Cl)c(N)nc3N)[C@H](c3ccc(C)cc3)C2)cc1 (stereo partly drawn)	600

A = COCCCNC(=O)COc1ccc(CCC[N+]2(CCCc3ccc(OCC(=O)NCCCOC)cc3)CCC[C@H](NC(=O)c3nc(Cl)c(N)nc3N)C2)cc1
B = COc1ccc(CCC[N+]2(CCCc3ccc(OC)cc3)CCC[C@H](NC(=O)c3nc(Cl)c(N)nc3N)C2)cc1
Query string: Could you please tell me which of these two has the higher IC50: A or B ? Output the label that corresponds to your choice.
Result string: A
(A: 7 nM, B: 4 nM)

A = COC(=O)COc1ccc(CCC[N+]2(CCCc3ccc(OCC(=O)OC)cc3)CCC[C@H](NC(=O)c3nc(Cl)c(N)nc3N)C2)cc1
B = COc1ccc(CCC[N+](C)(CCCc2ccc(OC)cc2)CC(C)(C)NC(=O)c2nc(Cl)c(N)nc2N)cc1
Query string: Could you check which of A and B has a smaller value for IC50? Output the label that corresponds to your choice.
Result string: A

----------
- target: ENaC (Epithelial Sodium Channel) (Mus musculus, UniProt Q61180+Q9WU38+Q9WU39)
- Construct: Mouse kidney M−1 cells were cultivated in DMEM; endogenous in cells; host or cells: Mouse kidney M-1 cells, cultivated with dexamethasone on transwell filters
- test summary: Ussing Chamber assay (short circuit current, amiloride sensitive I_SC)
- Format: cell-based
Structures can show the parent of a compound that is named as a salt.
experimental readout: pIC50
Quick note: pIC50 values are minus log10 of concentrations in mol/L.

Query string: Record lookup: for ENaC (Epithelial Sodium Channel) (Mus musculus, UniProt Q61180+Q9WU38+Q9WU39), what pIC50 belongs to Nc1nc(N)c(C(=O)NC2CCC[N+](CCCc3ccc(O)cc3)(CCCc3ccc(O)cc3)C2)nc1Cl (stereo not shown) [Example 6.15, trifluoroacetate] ?
Result string: 7.89

----------
- target: ENaC (Epithelial Sodium Channel) (Mus musculus, UniProt Q61180+Q9WU38+Q9WU39)
- Construct: Mouse kidney M−1 cells were cultivated in DMEM; endogenous in cells; host or cells: Mouse kidney M-1 cells, cultivated with dexamethasone on transwell filters
- test summary: Ussing Chamber assay (short circuit current, amiloride sensitive I_SC)
- Format: cell-based
- condition description: Ussing chamber, mouse kidney M-1 cells, short circuit current, compound added to the apical solution; read-out: IC50
- Description: The IC50 values of the example compounds given above were determined in the Ussing Chamber assay. Ussing Chamber: Mouse kidney M−1 cells were cultivated in DMEM containing 5% FCS and 5 μM dexamethasone for 10 to 12 days on polyester transwell filters. […] Short circuit currents (I_sc) were measured in the voltage-clamp mode with the software package Lab View for data acquisition and analysis. […] Results are expressed as inhibition in percent of the amiloride effect or as IC50.
experimental readout: IC50 (nM)

compound	IC50 / nM
N#CCNC(=O)COc1ccc(CCC[N+]2(CCCc3ccc(OCC(=O)NCC#N)cc3)CCC[C@H](NC(=O)c3nc(Cl)c(N)nc3N)C2)cc1	18

I = NC(=O)COc1ccc(CCC[N+]2(CCCc3ccc(OCC(N)=O)cc3)CCCC(NC(=O)c3nc(Cl)c(N)nc3N)C2)cc1 (stereo not drawn)
II = COc1ccc(CCC[N+]2(CCCc3ccc(C(=O)NCCCN(C)C)cc3)CCCC(NC(=O)c3nc(Cl)c(N)nc3N)C2)cc1 (stereo not drawn)
Query string: Could you please tell me which of these two has the higher IC50: I or II ? Output the label that corresponds to your choice.
Result string: I
(I: 72 nM, II: 20 nM)

----------
- target: ENaC (Epithelial Sodium Channel) (Mus musculus, UniProt Q61180+Q9WU38+Q9WU39)
- Construct: Mouse kidney M−1 cells were cultivated in DMEM; endogenous in cells; host or cells: Mouse kidney M-1 cells, cultivated with dexamethasone on transwell filters
- test summary: Ussing Chamber assay (short circuit current, amiloride sensitive I_SC)
- Format: cell-based
- condition description: Ussing chamber, mouse kidney M-1 cells, short circuit current, compound added to the apical solution; read-out: IC50
pIC50: −log10 of the molar value.
experimental readout: pIC50

a = COCCN(CCOC)C(=O)COc1ccc(CCC[N+]2(CCCc3ccc(OCC(=O)N(CCOC)CCOC)cc3)CCC[C@H](NC(=O)c3nc(Cl)c(N)nc3N)C2)cc1
b = CN(C)C(=O)CN(C)C(=O)COc1ccc(CCC[N+]2(CCCc3ccc(OCC(=O)N(C)CC(=O)N(C)C)cc3)CCC[C@H](NC(=O)c3nc(Cl)c(N)nc3N)C2)cc1
c = COc1ccc(CCC[N+]2(CCCc3ccc(OC)cc3)CCCCC(NC(=O)c3nc(Cl)c(N)nc3N)C2)cc1 (centres unmarked)
Query string: Highest to lowest pIC50: rank the entries shown above. Sort and list the labels as requested.
Result string: a, c, b
(a: 7.64, c: 7.36, b: 6.63)

A = Nc1nc(N)c(C(=O)N[C@H]2CCC[N+](CCCc3ccc(OCC(=O)NCc4cccnc4)cc3)(CCCc3ccc(OCC(=O)NCc4cccnc4)cc3)C2)nc1Cl
B = COc1ccc(CCC[N+]2(CCCCc3ccccc3)CCCC(NC(=O)c3nc(Cl)c(N)nc3N)C2)cc1 (centres unmarked)
C = COc1ccc(CCC[N+]2(CCCc3ccc(OC)cc3)CC(NC(=O)c3nc(Cl)c(N)nc3N)[C@H](c3ccc(C)cc3)C2)cc1 (some centres unmarked)
D = Nc1nc(N)c(C(=O)N[C@H]2CCC[N+](CCCc3ccc(OCC(=O)NCCCO)cc3)(CCCc3ccc(OCC(=O)NCCCO)cc3)C2)nc1Cl
E = C[N+](C)(C)CCNC(=O)COc1ccc(CCC[N+]2(CCCc3ccc(OCC(=O)NCC[N+](C)(C)C)cc3)CCC[C@H](NC(=O)c3nc(Cl)c(N)nc3N)C2)cc1
Query string: Hey, can you sort those molecules up there by pIC50, smallest first? Sort and list the labels as requested.
Result string: C, E, B, D, A

A = CO[C@H]1COC[C@@H]1NC(=O)COc1ccc(CCC[N+]2(CCCc3ccc(OCC(=O)N[C@H]4COC[C@@H]4OC)cc3)CCC[C@H](NC(=O)c3nc(Cl)c(N)nc3N)C2)cc1
B = COc1ccc(CCC[N+](C)(CCCc2ccc(OC)cc2)C[C@H](C)NC(=O)c2nc(Cl)c(N)nc2N)cc1
Query string: Could you check which of A and B has a smaller value for pIC50? Output the label that corresponds to your choice.
Result string: B

----------
- target: ENaC (Epithelial Sodium Channel) (Mus musculus, UniProt Q61180+Q9WU38+Q9WU39)
- Construct: Mouse kidney M−1 cells were cultivated in DMEM; endogenous in cells; host or cells: Mouse kidney M-1 cells, cultivated with dexamethasone on transwell filters
- Sequence (Q61180 1-699): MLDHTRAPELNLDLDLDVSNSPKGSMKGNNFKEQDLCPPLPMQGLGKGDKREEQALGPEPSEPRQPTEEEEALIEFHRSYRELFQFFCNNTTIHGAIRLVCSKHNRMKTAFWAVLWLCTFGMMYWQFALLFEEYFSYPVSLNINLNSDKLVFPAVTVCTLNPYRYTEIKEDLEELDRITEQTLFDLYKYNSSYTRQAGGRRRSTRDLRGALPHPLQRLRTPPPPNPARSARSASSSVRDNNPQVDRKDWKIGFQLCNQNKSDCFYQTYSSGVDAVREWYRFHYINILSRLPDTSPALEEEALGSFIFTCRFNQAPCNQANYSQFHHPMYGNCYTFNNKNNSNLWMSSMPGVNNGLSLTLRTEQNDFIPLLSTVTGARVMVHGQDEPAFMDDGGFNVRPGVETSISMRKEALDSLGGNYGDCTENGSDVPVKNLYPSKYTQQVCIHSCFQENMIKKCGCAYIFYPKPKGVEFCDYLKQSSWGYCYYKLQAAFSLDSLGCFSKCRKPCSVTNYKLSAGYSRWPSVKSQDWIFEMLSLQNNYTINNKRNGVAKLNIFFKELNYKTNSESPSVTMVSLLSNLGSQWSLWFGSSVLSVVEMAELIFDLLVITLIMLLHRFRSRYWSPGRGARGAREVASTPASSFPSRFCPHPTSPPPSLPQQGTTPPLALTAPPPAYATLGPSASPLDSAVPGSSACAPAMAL
- Sequence (Q9WU38 1-638): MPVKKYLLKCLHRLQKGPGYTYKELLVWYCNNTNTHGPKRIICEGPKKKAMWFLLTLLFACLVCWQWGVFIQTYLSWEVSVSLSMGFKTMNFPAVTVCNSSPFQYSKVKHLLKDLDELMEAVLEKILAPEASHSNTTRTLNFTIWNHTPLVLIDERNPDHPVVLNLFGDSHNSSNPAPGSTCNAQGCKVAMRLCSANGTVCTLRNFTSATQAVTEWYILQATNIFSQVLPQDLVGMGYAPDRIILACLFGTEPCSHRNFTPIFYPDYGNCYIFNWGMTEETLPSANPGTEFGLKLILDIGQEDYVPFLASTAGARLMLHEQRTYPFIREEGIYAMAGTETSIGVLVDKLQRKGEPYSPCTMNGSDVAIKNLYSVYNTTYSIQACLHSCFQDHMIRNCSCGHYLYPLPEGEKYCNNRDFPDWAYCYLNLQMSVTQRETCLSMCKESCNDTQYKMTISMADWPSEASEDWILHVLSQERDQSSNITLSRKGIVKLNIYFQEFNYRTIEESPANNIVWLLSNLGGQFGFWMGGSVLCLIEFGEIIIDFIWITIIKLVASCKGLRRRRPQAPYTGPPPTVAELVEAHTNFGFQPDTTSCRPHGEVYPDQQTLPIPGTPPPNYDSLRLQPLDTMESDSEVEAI
- Sequence (Q9WU39 1-655): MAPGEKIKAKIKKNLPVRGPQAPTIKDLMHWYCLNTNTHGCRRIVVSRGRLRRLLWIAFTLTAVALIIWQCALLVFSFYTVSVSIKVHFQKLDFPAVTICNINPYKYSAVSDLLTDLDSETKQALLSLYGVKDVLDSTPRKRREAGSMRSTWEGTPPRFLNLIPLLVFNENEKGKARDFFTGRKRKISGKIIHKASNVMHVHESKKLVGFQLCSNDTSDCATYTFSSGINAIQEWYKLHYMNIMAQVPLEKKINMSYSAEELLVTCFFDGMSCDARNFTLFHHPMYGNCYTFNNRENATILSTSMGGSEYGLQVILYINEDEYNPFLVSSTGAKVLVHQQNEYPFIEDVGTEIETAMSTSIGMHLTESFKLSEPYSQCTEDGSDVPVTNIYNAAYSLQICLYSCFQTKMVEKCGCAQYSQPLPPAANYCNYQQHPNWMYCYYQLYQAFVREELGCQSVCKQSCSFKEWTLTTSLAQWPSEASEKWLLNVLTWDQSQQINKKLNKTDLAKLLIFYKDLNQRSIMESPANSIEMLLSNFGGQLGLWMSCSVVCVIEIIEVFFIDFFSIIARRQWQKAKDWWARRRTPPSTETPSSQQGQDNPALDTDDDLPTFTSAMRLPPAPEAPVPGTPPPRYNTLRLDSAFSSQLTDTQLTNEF
- test summary: Ussing Chamber assay (short circuit current, amiloride sensitive I_SC)
- Assay type: cell-based
- condition description: Ussing chamber, mouse kidney M-1 cells, short circuit current, compound added to the apical solution; read-out: IC50
- Procedure: The IC50 values of the example compounds given above were determined in the Ussing Chamber assay. Ussing Chamber: Mouse kidney M−1 cells were cultivated in DMEM containing 5% FCS and 5 μM dexamethasone for 10 to 12 days on polyester transwell filters. […] Short circuit currents (I_sc) were measured in the voltage-clamp mode with the software package Lab View for data acquisition and analysis. […] Results are expressed as inhibition in percent of the amiloride effect or as IC50.
experimental readout: IC50 (nM)

Below are worked cases with known answers.
molecule	IC50 / nM
Nc1nc(N)c(C(=O)N[C@H]2CCC[N+](CCCc3ccc(OCC(=O)N(CCO)CCO)cc3)(CCCc3ccc(OCC(=O)N(CCO)CCO)cc3)C2)nc1Cl	121
CN1CCN(C(=O)COc2ccc(CCC[N+]3(CCCc4ccc(OCC(=O)N5CCN(C)CC5)cc4)CCC[C@H](NC(=O)c4nc(Cl)c(N)nc4N)C3)cc2)CC1	39
Cn1cnc(CNC(=O)COc2ccc(CCC[N+]3(CCCc4ccc(OCC(=O)NCc5cn(C)cn5)cc4)CCC[C@H](NC(=O)c4nc(Cl)c(N)nc4N)C3)cc2)c1	21

A = C[S+]([O-])CCNC(=O)COc1ccc(CCC[N+]2(CCCc3ccc(OCC(=O)NCC[S+](C)[O-])cc3)CCC[C@H](NC(=O)c3nc(Cl)c(N)nc3N)C2)cc1 (stereo partly drawn)
B = COc1ccc(CCC[N+]2(Cc3ccccc3)CCCC(NC(=O)c3nc(Cl)c(N)nc3N)C2)cc1 (stereo not drawn)
Query string: Could you check which of A and B has a smaller value for IC50? Output the label that corresponds to your choice.
Result string: A
